The reported numbers originate from the supplement of paper PMC9170038.

tested on: MS2 coat protein; experiment: apparent KD of MS2 coat protein, switch OFF state (with FMN for OFF switches, without FMN for ON switches); designed switch direction (-1 OFF switch, 1 ON switch): -1; higher = weaker reporter binding; details: FMN input: 0 or 200 uM; Eterna round: R93 (includes R88 designs)
parameter: apparent KD of MS2 coat protein (nM)
A number alone suffices; assume nM.

- AAGAACGCAGGAUAUACAUGAGGAUCACCCAUGUAAAAGAAAGAAAAGGGAAAGAAAAGUAGAAGGGCGAAGAA [Aakheperkare Thutmose I]: 33.1
- UCCUCACAUGAGGAUCACCCAUGUCAGGAUAUCUCACAGCGAAAGAAUAAAGGCUGCAAGAGAAGGGACACAAA [Raisa]: 44.2
- AGUGAGUCAGGAUAUGCGUGAAGAAUAAAAGAAAUAACAACGCAGAAGGGACAUGAGGAUCACCCAUGUACACA [May 56]: 20.7

Turning to the following sequence.
Problem: Query the reported apparent KD of MS2 coat protein for MS2 coat protein; item: AAAUGUCUAGGAUAUACAUGAGGAUCACCCAUGUGUAAAAAUAAAUACACAAAAGAAAGUAGAAGGAGACAAAA [Ex 3 May 13]
Solution: 47.3
